Record: pKi reported on SYK kinase (Homo sapiens).
pKi: −log10 of the molar value.

Request: Request - read-out pKi | tested on SYK kinase (Homo sapiens) | compound COc1ccc2nc(Nc3ccc(N4CCOCC4)c([N+](=O)[O-])c3)c3n[nH]cc3c2c1
Result: > 8.00

Request: Form entry - test system: SYK kinase (Homo sapiens); read-out: pKi; compound: COc1ccc2nc(Nc3ccc(OC4CCN(C)CC4)cc3)c3n[nH]cc3c2c1
Result: 7.00 to 8.00

Request: What measured pKi is associated with COc1ccc2nc(Nc3ccc([N+](=O)[O-])cc3)c3n[nH]cc3c2c1 on SYK kinase (Homo sapiens)?
Result: > 8.00

Request: Field: pKi (SYK kinase (Homo sapiens)). Entry: Cc1cc(Nc2nc3ccccc3c3c[nH]nc23)cc2cn[nH]c12
Result: 6.00 to 7.00

Request: Value wanted: pKi (SYK kinase (Homo sapiens)) of entry COc1ccc2nc(Nc3ccc(C4=NCCN4)cc3)c3n[nH]cc3c2c1
Result: 7.00 to 8.00

Request: Form field: pKi recorded for CNS(=O)(=O)c1cccc(Nc2nc3ccc(OC)cc3c3c[nH]nc23)c1 with SYK kinase (Homo sapiens) (enter value)
Result: 7.00 to 8.00

Request: Form: Entry = COc1ccc2nc(Nc3ccc(OC)c(OC)c3)c3n[nH]cc3c2c1 | System = SYK kinase (Homo sapiens) | pKi = ____
Result: 7.00 to 8.00

Request: Hi! What's the reported pKi for COc1ccc2nc(Nc3ccc(N4CCN(C(C)C)CC4)cc3)c3n[nH]cc3c2c1 on SYK kinase (Homo sapiens)?
Result: > 8.00

----------
Biological target: LRRK2 (Homo sapiens)
Sequence (Q5S007 970-2527 limits assumed): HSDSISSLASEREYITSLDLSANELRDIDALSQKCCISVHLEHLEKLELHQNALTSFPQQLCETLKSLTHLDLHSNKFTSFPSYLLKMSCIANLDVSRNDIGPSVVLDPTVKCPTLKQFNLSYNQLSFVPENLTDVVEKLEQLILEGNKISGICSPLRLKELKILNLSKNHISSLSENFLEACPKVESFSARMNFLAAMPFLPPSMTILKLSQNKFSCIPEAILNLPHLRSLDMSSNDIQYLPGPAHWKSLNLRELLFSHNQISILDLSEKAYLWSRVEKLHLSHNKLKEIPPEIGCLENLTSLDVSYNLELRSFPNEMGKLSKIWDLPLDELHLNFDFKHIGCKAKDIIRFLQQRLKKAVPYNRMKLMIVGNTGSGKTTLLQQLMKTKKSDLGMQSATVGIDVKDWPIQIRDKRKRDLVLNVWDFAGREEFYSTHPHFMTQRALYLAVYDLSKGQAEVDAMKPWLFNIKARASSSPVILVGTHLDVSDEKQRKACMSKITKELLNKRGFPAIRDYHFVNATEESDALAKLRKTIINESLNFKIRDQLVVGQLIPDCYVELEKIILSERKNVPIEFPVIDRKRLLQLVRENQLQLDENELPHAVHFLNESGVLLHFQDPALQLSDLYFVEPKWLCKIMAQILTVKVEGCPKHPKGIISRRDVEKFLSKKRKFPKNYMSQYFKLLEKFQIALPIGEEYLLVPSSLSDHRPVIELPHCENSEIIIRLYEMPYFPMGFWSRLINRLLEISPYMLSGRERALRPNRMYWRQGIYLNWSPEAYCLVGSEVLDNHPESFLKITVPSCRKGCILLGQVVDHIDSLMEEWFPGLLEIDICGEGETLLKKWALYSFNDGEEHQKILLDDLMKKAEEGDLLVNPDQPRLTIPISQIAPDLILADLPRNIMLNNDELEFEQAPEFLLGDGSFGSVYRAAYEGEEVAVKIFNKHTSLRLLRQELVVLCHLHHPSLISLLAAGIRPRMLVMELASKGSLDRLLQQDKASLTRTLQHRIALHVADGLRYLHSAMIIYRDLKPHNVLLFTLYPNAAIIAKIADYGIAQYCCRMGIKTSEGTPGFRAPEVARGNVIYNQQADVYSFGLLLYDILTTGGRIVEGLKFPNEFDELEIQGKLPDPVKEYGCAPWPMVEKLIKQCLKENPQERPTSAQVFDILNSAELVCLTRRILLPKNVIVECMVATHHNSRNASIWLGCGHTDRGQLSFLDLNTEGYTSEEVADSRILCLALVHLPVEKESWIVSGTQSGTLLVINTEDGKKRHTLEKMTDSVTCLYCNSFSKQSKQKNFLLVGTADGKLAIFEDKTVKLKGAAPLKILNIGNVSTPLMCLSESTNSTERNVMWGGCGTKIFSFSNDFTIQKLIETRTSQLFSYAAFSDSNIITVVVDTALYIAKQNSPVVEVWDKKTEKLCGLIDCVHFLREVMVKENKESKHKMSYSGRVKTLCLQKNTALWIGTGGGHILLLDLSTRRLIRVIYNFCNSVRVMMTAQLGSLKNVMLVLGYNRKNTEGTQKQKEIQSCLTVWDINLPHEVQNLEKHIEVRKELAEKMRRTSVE
Experiment: LRRK2 assay (LanthaScreen Eu Kinase Binding Assay)
Settings: LRRK2 Activites: IC50, 5 nM LRRK2, 10 nM tracer 236, RT 1 h
# maps each entry to its IC50

COMPOUND | IC50
COc1ccc2nc(Nc3ccc(C(=O)N4CCC5(CC4)OCCO5)cc3)c3n[nH]cc3c2c1 [Example #306] | 10 to 100 nM

# next compound below
Request: Item COc1ccc2nc(Nc3ccc(C(=O)N4CCC(=O)CC4)cc3)c3n[nH]cc3c2c1 [Example #305] with LRRK2 (Homo sapiens) - IC50?
Result: 10 to 100 nM

----------
Ki values for the compounds below.
Molecular target: SYK kinase (Homo sapiens, UniProt P43405)

SMILES INPUT | MEASURED QUANTITY | RESULT
COc1ccc2nc(Nc3ccc(N4CCN(C)CC4)c(Cl)c3)c3n[nH]cc3c2c1 | Ki | 0.01 to 0.1 µM
COc1cc2nc(Nc3ccc4cn[nH]c4c3)c3n[nH]cc3c2cc1OC | Ki | 0.01 to 0.1 µM

Shifting focus to the compound that follows.
Request: For COc1ccc(Nc2nc3ccccc3c3c(C)[nH]nc23)cc1OC , what is its reported Ki?
Result: 0.01 to 0.1 µM

----------
Target: SYK kinase (Homo sapiens, UniProt P43405)
MEASURED QUANTITY: Ki

Example cases with answers are listed next.
SMILES INPUT | MEASURED QUANTITY | RESULT
COc1ccc2nc(Nc3ccc(C(=O)N4CCC4)cc3)c3n[nH]cc3c2c1 | Ki | 10 to 100 nM
FC(F)(F)c1cccc(Nc2nc3ccccc3c3c[nH]nc23)c1 | Ki | 100 to 1000 nM
COc1ccc(Nc2nc3ccc(C#N)cc3c3c[nH]nc23)cc1OC | Ki | 10 to 100 nM
COc1ccc2nc(Nc3ccc(C(O)(C(F)(F)F)C(F)(F)F)cc3)c3n[nH]cc3c2c1 | Ki | 100 to 1000 nM

Now for the compound whose Ki we want.
Request: Could you share what Ki was measured for COc1ccc2nc(Nc3cccc(C(=N)N)c3)c3n[nH]cc3c2c1 , tested on SYK kinase (Homo sapiens, UniProt P43405)?
Result: 100 to 1000 nM
